# PROCEDURE_TEXT: inhibitors of DENV2 cytopathic effect, primary screen, cell-based, plate reader, single concentration (AID 651640)
# RUN_CONDITIONS: DENV2-infected cells, cytopathic effect rescue, at 9.99 µM
Out of some 350,000 compounds screened, about 6,000 (1.7%) were called active. Roughly 5% stayed inconclusive and do not appear here. Cut-off read from the data, not from the text of the source: active = CPE inhibition above about 20% (passing the limit was not always enough); inconclusive = no clear call, values can overlap the other calls; tested in BHK-21 cells. This excerpt belongs to a sample that is enriched for actives.
Assign a class; possible classes are y = active, n = inactive

Hello, I am checking results. What call was entered for C[C@@H]1CN([C@H](C)CO)C(=O)c2cc(NC(=O)c3ccncc3)ccc2O[C@H]1CN(C)Cc1ccc(Oc2ccccc2)cc1 ?
n

Hello, I am checking results. What call was entered for COc1ccc(NC(=O)N(C)C[C@H]2Oc3c(NC(=O)Nc4cccc5ccccc45)cccc3C(=O)N([C@@H](C)CO)C[C@H]2C)cc1 ?
n

Hello, I am checking results. What call was entered for Cc1ccccc1S(=O)(=O)N1[C@H](C#N)[C@H](c2ccccc2)[C@H]1CO ?
n

Hello, I am checking results. What call was entered for O=C(C[C@@H]1CC[C@H]2[C@@H](COC[C@@H](O)CN2C(=O)Nc2ccc(F)cc2)O1)NCC1CC1 ?
n

Hello, I am checking results. What call was entered for C[C@@H]1CN([C@@H](C)CO)C(=O)c2cccc(NC(=O)C3CC3)c2O[C@@H]1CN(C)C ?
n

Hello, I am checking results. What call was entered for COC(=O)[C@@H]1[C@@H](CO)[C@@H]2Cn3c(ccc(C4=CCCC4)c3=O)[C@@H]2N1Cc1cncnc1 ?
n

Hello, I am checking results. What call was entered for C[C@@H]1CN([C@H](C)CO)C(=O)c2cccc(NC(=O)Nc3ccccc3)c2O[C@@H]1CN(C)C(=O)NC1CCCCC1 ?
n

Hello, I am checking results. What call was entered for CO[C@H]1CN(C)C(=O)c2ccc(NC(=O)C3CC3)cc2OC[C@H](C)N(CCc2ccccc2)C[C@@H]1C ?
n

Hello, I am checking results. What call was entered for C=CC[C@]1(C(=O)NCC(O)CO)N=C(c2ccc(OCCCO)cc2)O[C@H]1c1ccccc1 (some centres not stated) ?
n

Hello, I am checking results. What call was entered for C[C@H](CO)N1C[C@H](C)[C@H](CN(C)C(=O)NC2CCCCC2)Oc2c(NC(=O)C3CC3)cccc2C1=O ?
y

Hello, I am checking results. What call was entered for C[C@@H](NC(=O)C[C@H]1CC[C@H]2[C@@H](COC[C@@H](O)CN2C(=O)Nc2ccccc2)O1)c1ccccc1 ?
n

Hello, I am checking results. What call was entered for CCNC(=O)C[C@H]1CC[C@@H]2[C@H](COC[C@H](O)CN2C(=O)Nc2c(C)noc2C)O1 ?
n

Hello, I am checking results. What call was entered for O=C(C[C@H]1CC[C@H]2[C@@H](COC[C@@H](O)CN2Cc2nccs2)O1)NCc1ccccc1Cl ?
n

Hello, I am checking results. What call was entered for O=C(CN1CCN(c2ccccc2)CC1)Nc1ccc(F)cc1 ?
n

Hello, I am checking results. What call was entered for CS(=O)(=O)N1[C@H](C#N)[C@H](c2ccc(C#CC3CCCC3)cc2)[C@H]1CO ?
y

Hello, I am checking results. What call was entered for CS(=O)(=O)N1[C@@H](C#N)[C@H](c2ccc(C#CC3CCCCC3)cc2)[C@@H]1CO ?
n

Hello, I am checking results. What call was entered for O=S(=O)(c1ccc(F)cc1)N1CCCCN2[C@H](C1)[C@H](c1ccc(C3=CCCCC3)cc1)[C@@H]2CO ?
n

Hello, I am checking results. What call was entered for C[C@@H]1CN([C@H](C)CO)C(=O)c2cccc(NC(=O)Nc3cccc4ccccc34)c2O[C@@H]1CN(C)C(=O)Nc1cccc2ccccc12 ?
n

Hello, I am checking results. What call was entered for CCC(=O)N1C[C@@H](C)[C@@H](OC)CN(C)C(=O)c2ccc(NC(=O)C3CCCCC3)cc2OC[C@@H]1C ?
n

Hello, I am checking results. What call was entered for CS(=O)(=O)N1[C@H](C#N)[C@H](c2ccccc2-c2ccc(F)cc2)[C@@H]1CO ?
y

Hello, I am checking results. What call was entered for COC(=O)[C@@]1(CCS(=O)(=O)c2ccccc2)N=C(c2ccc(OCCCO)cc2)O[C@H]1c1ccccc1N=[N+]=[N-] ?
n

Hello, I am checking results. What call was entered for Cc1ccccc1S(=O)(=O)N1[C@H](C#N)[C@H](c2ccccc2)[C@@H]1CO ?
y

Hello, I am checking results. What call was entered for C[C@H]1CN([C@@H](C)CO)C(=O)c2cccc(NC(=O)Nc3cccc4ccccc34)c2O[C@@H]1CN(C)C(=O)NC1CCCCC1 ?
y

Hello, I am checking results. What call was entered for Cc1ccc(O)c(CCc2ccccc2)n1 ?
n

Hello, I am checking results. What call was entered for C[C@H]1CN([C@@H](C)CO)S(=O)(=O)c2ccc(-c3ccncc3)cc2O[C@H]1CN(C)S(C)(=O)=O ?
n

Hello, I am checking results. What call was entered for CC(C)NC(=O)N(C)C[C@H]1Oc2c(NC(=O)C3CCCCC3)cccc2C(=O)N([C@@H](C)CO)C[C@H]1C ?
n

Hello, I am checking results. What call was entered for C[C@@H]1CN([C@@H](C)CO)S(=O)(=O)c2ccc(C#CC(C)(C)O)cc2O[C@H]1CN(C)C(=O)CN(C)C ?
n

Hello, I am checking results. What call was entered for O=C(c1cccc(F)c1)N1C[C@H]2[C@@H](c3ccccc31)[C@@H](CO)N2C(=O)Cc1ccccc1 ?
n

Hello, I am checking results. What call was entered for C[C@@H](NC(=O)C[C@@H]1CC[C@@H]2[C@H](COC[C@@H](O)CN2C(=O)Nc2cccc(F)c2)O1)c1ccccc1 ?
y

Hello, I am checking results. What call was entered for C[C@H](CO)N1C[C@H](C)[C@@H](CN(C)C(=O)c2ccccc2)OCCCC[C@H](C)Oc2ccc(NC(=O)c3ccccc3)cc2C1=O ?
n

Hello, I am checking results. What call was entered for COCC#Cc1ccc([C@@H]2[C@@H](CO)N3C(=O)CN(C(=O)C4CCCC4)C[C@@H]23)cc1 ?
n

Hello, I am checking results. What call was entered for C[C@@H]1CCCCO[C@H](CN(C)Cc2ccccc2)[C@H](C)CN([C@@H](C)CO)C(=O)c2cc(NC(=O)Nc3cccc4ccccc34)ccc2O1 ?
n
